Kindly state IC50 HT-1080 Exo PAI-1 for each of the entries shown.
Target: human PAI-1, active, wild-type, non-glycosylated (E. coli-derived) (human, UniProt P05121 24-402)
Sequence (P05121 24-402): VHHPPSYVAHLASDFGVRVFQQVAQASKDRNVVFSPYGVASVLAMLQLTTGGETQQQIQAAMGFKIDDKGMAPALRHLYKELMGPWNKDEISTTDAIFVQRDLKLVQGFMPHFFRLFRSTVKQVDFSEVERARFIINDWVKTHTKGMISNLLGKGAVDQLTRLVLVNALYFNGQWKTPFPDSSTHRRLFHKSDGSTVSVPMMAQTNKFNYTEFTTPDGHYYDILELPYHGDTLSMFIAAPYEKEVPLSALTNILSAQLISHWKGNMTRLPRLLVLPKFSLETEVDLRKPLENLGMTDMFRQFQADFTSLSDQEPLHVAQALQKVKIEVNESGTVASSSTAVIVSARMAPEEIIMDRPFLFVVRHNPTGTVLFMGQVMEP
Assay: cell-based or functional assay
Number first, unit second.

Some binders with recorded IC50 HT-1080 Exo PAI-1:
Antibody 14, scFv (scFv, V domains shown) VH: QVQLQQSGAEVKKPGSSVKVSCKASGGTFSSYAISWVRQAPGQGLEWMGGIIPTFGTANYAQKFQGRVTITADESTSTAYMELSGLRSEDTAVYYCAREKRQWLEGHFDYWGRGTLVTVSS VL: DIQMTQSPSFLSASIGDRVTITCRASEGIYHNLAWYQQKPGKAPKLLIYRASSLASGAPSRFSGSGSGTDFTFTISSLQPDDFATYYCQQYSNYPLTFGGGTKLEIK : 28 nM
Antibody 01, scFv (scFv, V domains shown) VH: QVQLVQSGAEVKKPGSSVKVSCKASGGTFSSYAISWVRQAPGQGLEWMGGIIPIFGTANYAQKFQGRVTITADESTSTAYMELSSLRSEDTAVYYCAREKRQWLEGHFDYWGRGTLVTVSS VL: DIQMTQSPSTLSASVGDRVTITCRASEGIYRSLAWYQQKPGKAPKLLIYKASSLASGVPSRFSGSGSGTEFTLTISSLQPDDFATYYCQQYSNYPLTFGGGTKVEIK : 23.9 nM

Fill in reported IC50 HT-1080 Exo PAI-1 for this entry: Antibody 01, IgG1, not germlined (antibody, V domains shown) VH: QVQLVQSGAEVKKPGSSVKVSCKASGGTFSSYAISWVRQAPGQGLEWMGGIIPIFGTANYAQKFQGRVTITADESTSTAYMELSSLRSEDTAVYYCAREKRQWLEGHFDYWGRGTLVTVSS VL: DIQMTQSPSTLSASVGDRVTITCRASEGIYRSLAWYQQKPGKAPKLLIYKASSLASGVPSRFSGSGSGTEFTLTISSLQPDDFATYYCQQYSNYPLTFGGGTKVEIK
11.2 nM
